Exercise: for every item that follows, state its recorded protein stability index.
- Measurement Description: protein stability index of a GFP-peptide fusion (yeast GPS) (PSI 1-4); higher = more stable; sorted into four equal gates, so the index is relative within each strain
- Condition Set: doa10∆
Numbers only.

// worked examples, protein stability index included
| Monomer Sequence | Recorded Measurement |
| --- | --- |
| RVAKGSGTSVFEVEMIL [SRP54] | 3.28 |
| SGGSVNLYHVTEDGWIY [PRE2] | 2.85 |
| ERKEQEEKEKEQSKEVG [BRN1] | 3.48 |

Dear reader, for each entry below, please note its protein stability index.
1. VSLSQLLFIVGQVAIKT [YCS4]
2. VVARRSNSANVSSPESE [ITC1]
3. SRIYKTIKVAGTPLLEV [SNU114]
4. NGQEQQGPVKNTQLHGP [RGR1]
5. AHKLKKSLDSIPMSKTI [FAS2]

[1.85, 3.19, 2.21, 3.02, 3]
